Target: GABA-A receptor; alpha-2/beta-3/gamma-2 (Homo sapiens, UniProt P18507+P28472+P47869)
Sequence (P18507 whole entry): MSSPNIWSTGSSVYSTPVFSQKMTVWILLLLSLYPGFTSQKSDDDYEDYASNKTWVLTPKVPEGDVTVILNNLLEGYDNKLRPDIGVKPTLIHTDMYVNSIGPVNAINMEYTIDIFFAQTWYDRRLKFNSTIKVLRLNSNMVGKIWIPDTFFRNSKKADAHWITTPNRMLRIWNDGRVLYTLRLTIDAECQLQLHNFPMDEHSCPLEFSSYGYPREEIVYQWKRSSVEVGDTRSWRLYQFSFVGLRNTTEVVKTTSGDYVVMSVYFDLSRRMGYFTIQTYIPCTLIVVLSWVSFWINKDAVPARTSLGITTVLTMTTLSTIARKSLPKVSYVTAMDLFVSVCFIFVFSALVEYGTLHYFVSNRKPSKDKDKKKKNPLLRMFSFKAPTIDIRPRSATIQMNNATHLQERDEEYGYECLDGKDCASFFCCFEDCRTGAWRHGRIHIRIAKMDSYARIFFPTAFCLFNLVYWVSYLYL
Sequence (P28472 whole entry): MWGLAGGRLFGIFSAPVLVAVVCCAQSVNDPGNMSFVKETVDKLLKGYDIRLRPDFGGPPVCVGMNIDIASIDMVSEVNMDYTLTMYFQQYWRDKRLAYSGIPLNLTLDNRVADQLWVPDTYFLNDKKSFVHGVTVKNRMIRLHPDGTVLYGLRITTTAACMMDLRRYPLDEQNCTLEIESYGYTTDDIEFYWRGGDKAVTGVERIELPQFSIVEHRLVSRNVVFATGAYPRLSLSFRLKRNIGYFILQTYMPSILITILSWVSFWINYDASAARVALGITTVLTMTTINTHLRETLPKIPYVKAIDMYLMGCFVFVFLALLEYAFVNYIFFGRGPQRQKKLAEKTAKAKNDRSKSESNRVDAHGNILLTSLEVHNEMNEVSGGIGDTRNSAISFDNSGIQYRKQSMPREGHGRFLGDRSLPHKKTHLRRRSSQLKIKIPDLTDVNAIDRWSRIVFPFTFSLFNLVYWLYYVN
Sequence (P47869 whole entry): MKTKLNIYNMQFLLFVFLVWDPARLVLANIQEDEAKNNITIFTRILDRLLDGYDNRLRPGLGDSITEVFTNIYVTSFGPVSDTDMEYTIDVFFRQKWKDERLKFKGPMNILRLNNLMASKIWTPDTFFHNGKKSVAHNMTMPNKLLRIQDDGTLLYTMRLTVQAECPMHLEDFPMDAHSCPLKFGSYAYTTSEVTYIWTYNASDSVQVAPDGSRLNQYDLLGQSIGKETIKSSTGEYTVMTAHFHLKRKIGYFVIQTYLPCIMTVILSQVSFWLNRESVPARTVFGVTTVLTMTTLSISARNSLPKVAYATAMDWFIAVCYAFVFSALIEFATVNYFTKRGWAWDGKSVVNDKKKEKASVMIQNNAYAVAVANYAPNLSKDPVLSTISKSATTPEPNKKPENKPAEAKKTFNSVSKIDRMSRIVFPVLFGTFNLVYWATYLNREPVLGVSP
Assay: Binding affinity for human GABA-A receptor alpha-2-beta-3-gamma-2 subunits in L(tk-) cells
measurement.name: Ki (nM)
Answers are plain numbers, in nM.

{"test.smiles": "c1ccc(COc2nn3c(-c4ccccc4)nnc3c3ccccc23)cc1", "endpoint.value": 16}
{"test.smiles": "c1ccc(-c2nnc3c4ccccc4c(OCc4ccncc4)nn23)cc1", "endpoint.value": 11}
{"test.smiles": "Cc1cccc(COc2nn3c(C4CC4)nnc3c3ccccc23)n1", "endpoint.value": 9.7}
{"test.smiles": "c1ccc(-c2nnc3c4c(c(OCc5ccccn5)nn23)CCCCC4)cc1", "endpoint.value": 17}

Dear colleague, could you please provide Ki for the compounds listed below?
1. Cc1ccc(-c2nnc3c4ccccc4c(OCc4ccccn4)nn23)cc1
2. c1ccc(-c2nnc3c4ccccc4c(OCc4cccnc4)nn23)cc1

[16, 16]
